# System: OVCAR-3 ovarian
# assay method text: NCI-60 one-dose screen, 48 h (100 = growth as untreated, 0 = no growth, -100 = all killed)
# experimental setup: 10 µM unless noted
This is part of a sample that, as a whole, favours compounds with a hit. Of some 83,000 tested, about 20% had one in any assay.
value kind: growth (%)
Answers are plain numbers, in %.

Consider the reported growth for these molecules:
O=C(O)c1cn(C2CC2)c2cc(N3CCN(C(=O)N/N=C/c4ccccc4)CC3)c(F)cc2c1=O : 102
NC(CSC(c1ccccc1)(c1ccccc1)c1ccc2c(c1)OCO2)C(=O)O (stereo not given) : 3.46
COc1ccc(-c2cn(-c3ccc(Cl)cc3)c(SCC(=O)c3ccc([N+](=O)[O-])cc3)n2)cc1 : 106
COc1ccc(-c2oc(=O)ccc2-c2cc(OC)c(OC)c(OC)c2)cc1O : -59.3
CCCCNC1=C(OCC)C(=O)c2ccccc2C1=O : 98.3
CCN1C(=S)N(CC)C2C1NC(=S)N2/N=C/C=C/c1ccccc1OC (stereo not given) : -48

Hi, could you look up growth for each item in my list?
1. COC(=O)c1c2c(c(C)[n+]([O-])c1C)C(=O)C=CC2=O
2. O=C1Nc2ccc(F)cc2/C1=C\c1nc(-c2ccccc2F)n2ccccc12
3. COc1cc(Nc2ncccc2NC(=O)c2cn(Cc3cccc(Oc4ccccc4)c3)nn2)cc(OC)c1
4. CN1CCN(CCCOC(=O)c2c3c(n4ccccc24)C(=O)c2ncccc2C3=O)CC1

Outgoing:
-8.77
126
85.3
0.457

* * *

Exercise: for every item that follows, state its recorded growth.
# System: OVCAR-3 ovarian
# assay method text: NCI-60 one-dose screen, 48 h (100 = growth as untreated, 0 = no growth, -100 = all killed)
# experimental setup: 10 µM unless noted
Compounds without any hit were thinned out: in the full panel of roughly 83,000, 20% have a hit.
One number for each entry, in %.

O=C1c2cccnc2C(=O)c2c1c(C(=O)OCCCN1CCCCC1)c1ccccn21 : 0.168
CC/C(Cc1ccccc1)=C(\c1ccc(OCCN2CCCCCC2)cc1)c1ccc(OC(=O)NCc2ccccc2)cc1 : 89.8
CN1CCN(CCOc2ccc(-c3cnc4c(-c5ccc(C(F)(F)F)cc5)cnn4c3)cc2)CC1 : -3.51
CCn1cc(CNc2ccc(C(=O)Nc3cc4cc(OC)c(OC)cc4c(C)n3)cc2)c(C)n1 : 33.7

Hi, could you look up growth for each item in my list?
1. Cc1ncc(C(=O)Nc2ccc(CN3CCN(C)CC3)c(C(F)(F)F)c2)cc1C#Cc1cnc(N)c2cnccc12
2. CN1CCN(c2ccc(NC(=O)c3cncnc3Nc3ccc4c(ccn4Cc4cccc(F)c4)c3)cc2)CC1
3. COc1ccc2nc3ccccc3c(NCc3ccccc3)c2c1
4. C/C(=C(/c1ccc(Cl)cc1)c1ccc(OCCCN(C)C)cc1)c1ccc(Cl)cc1
5. O=C1/C(=C/c2ccc(Br)cc2)COc2ccc(O)c(O)c21
6. CCOC(=O)NN1CC(O)=C(c2nc(-c3ccc(Br)cc3)cs2)C1=N
7. COc1cc(/C=C2\CN(S(=O)(=O)c3ccc(C)cc3)C/C(=C\c3cc(CN4CCCCC4)c(O)c(OC)c3)C2=O)cc(CN2CCCCC2)c1O
8. C#Cc1cccc(Nc2nc3ccc([N+](=O)[O-])cc3nc2Nc2cccc(C#C)c2)c1

Outgoing:
31.2
80.8
41
86.3
-91.5
99.9
-89.4
-67.4

Hi, could you look up growth for each item in my list?
1. C=C(CN1CC=CCC1)[C@@H]1CC[C@]2(CO)CC[C@]3(C)[C@H](CC[C@@H]4[C@@]5(C)CC[C@H](O)C(C)(C)[C@@H]5CC[C@]43C)[C@@H]12
2. O=C(CCC(=O)c1nc2ncccc2[nH]1)NN1C(=O)CSC1c1ccc(Cl)cc1 (configuration not stated)
3. COC(=O)c1ccc2c(c1)c1c(C)c3ccncc3c(C)c1n2C

Outgoing:
[102, 98.7, 39.5]

Hi, could you look up growth for each item in my list?
1. CC1CN=C(c2cccc(-c3ccc(-c4ccccc4)o3)c2)N1 (configuration not stated)
2. O=P(O)(O)OCC1OC(n2cnc3c(NCc4ccccc4)ncnc32)C(O)C1O (configuration not stated)
3. COc1ccc(-c2ccc(=O)oc2C#Cc2cc(OC)c(OC)c(OC)c2)cc1O
4. O=C1N[C@@H]2[C@@H](O)[C@@H](O)[C@H](O)C[C@H]2c2cc3c(c(O)c21)OCCO3
5. COc1ccc2c(O)c(/C=C3\N=Nc4ccccc43)oc2c1C[C@H]1CCNC[C@H]1F

Outgoing:
[10.6, -66.7, -67.2, -13, 66.4]

Hi, could you look up growth for each item in my list?
1. C#CC#CC#CC#CC#CC#CC#CC#CCC1OCC(COC(=O)O[C@@H](C(=O)O[C@H]2C[C@@]3(O)[C@@H](OC(=O)c4ccccc4)[C@@H]4[C@]5(OC(C)=O)CO[C@@H]5C[C@H](O)[C@@]4(C)C(=O)[C@H](OC(C)=O)C(=C2C)C3(C)C)[C@@H](NC(=O)c2ccccc2)c2ccccc2)O1 (some centres not stated)
2. Nc1c(C(=O)O)cc(Cl)cc1[N+](=O)[O-]

Outgoing:
1: 4.93; 2: 105

Hi, could you look up growth for each item in my list?
1. COc1ccc(C2=NN(C(=O)c3cc(OC)c(OC)c(OC)c3)C(c3ccc(N(C)C)cc3)C2)cc1 (configuration not stated)
2. O=C(Nc1cccc(NC(=O)C2CCCCC2)c1)c1ccccn1

Outgoing:
1: 5.03; 2: 104

Hi, could you look up growth for each item in my list?
1. CC(C(=O)O)n1c(O)c(C=Nc2cccnc2)sc1=S (configuration not stated)
2. Cc1ncc(C(=O)Nc2ccc(CN3CCN(C)CC3)c(C(F)(F)F)c2)cc1C#Cc1cnc(N)c2ccncc12
3. COc1ccc2nc3cc(Cl)ccc3c(NCCN)c2c1
4. N=c1c2c(=N)n3c(nc2nc2n1-c1ccccc1Sc1ccccc1-2)sc1cc(Cl)ccc13
5. Nc1c(C(=O)Nc2ccccn2)sc2nc3c(cc12)C(O)CCC3 (configuration not stated)

Outgoing:
[105, -43.6, -84.8, 7.88, -19.1]

Hi, could you look up growth for each item in my list?
1. CC1COCC(C)N1C1=C(Cl)C(=O)c2ccccc2C1=O (configuration not stated)
2. C=CC(=O)NCCOc1cccc(Nc2cc(NCCCNC(=O)C3CCC3)c(Br)cn2)c1
3. CCOC(=O)c1c(NC(=O)c2ccc(C(C)(C)C)cc2)sc2cc(O)ccc12
4. CCCCCSB(SCCCCC)c1ccccc1
5. O=C1/C(=C/c2ccccc2[N+](=O)[O-])COc2ccc(O)cc21

Outgoing:
1. 46.1
2. -25.5
3. 110
4. 109
5. 7.73

Hi, could you look up growth for each item in my list?
1. O=C(CN1CCN(c2cc3c(cc2F)c(=O)c(C(=O)O)cn3C2CC2)CC1)N/N=C/c1ccncc1
2. Cc1ccc(/C=C(\C#N)C(=O)Nc2ncc(Cc3cc(Cl)ccc3Cl)s2)o1
3. CCOC(=O)c1c(NC(=O)c2ccc(OC)cc2)sc2c(CN(C)C)c(O)ccc12

Outgoing:
[96.9, 75.4, 106]
